B1: GALNT9 (parent)
chain: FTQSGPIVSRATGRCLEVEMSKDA

Variants of: B1
Test: protein stability index of a GFP-peptide fusion (GPS, HEK-293T) (PSI 1-6); higher = more stable;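 further: lentivirally expressed fusions sorted by FACS into six bins by GFP to DsRed ratio, PSI derived from sequencing read proportions per bin multiplied by bin number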
Settings: c terminus: a fixed tail appended
Could you please report measured protein stability index for the items listed next?
// no unit string in output, number only

[Q] Using the record for R10D , report its protein stability index.
[A] 3.87

[Q] Using the record for D23L , report its protein stability index.
[A] 2.07

[Q] Using the record for V8R , report its protein stability index.
[A] 1.83

[Q] Using the record for E17N , report its protein stability index.
[A] 3.09

[Q] Using the record for G13S , report its protein stability index.
[A] 1.76

[Q] Using the record for M20T , report its protein stability index.
[A] 3.24

[Q] Using the record for E17K , report its protein stability index.
[A] 2.41

[Q] Using the record for D23C , report its protein stability index.
[A] 1.51

[Q] Using the record for V18R , report its protein stability index.
[A] 1.94

[Q] Using the record for T12H , report its protein stability index.
[A] 1.58

[Q] Using the record for G13Y , report its protein stability index.
[A] 4.09

[Q] Using the record for S4L , report its protein stability index.
[A] 2.78

[Q] Using the record for K22N , report its protein stability index.
[A] 2.74

[Q] Using the record for C15R , report its protein stability index.
[A] 3.86

[Q] Using the record for V18W , report its protein stability index.
[A] 1.74

[Q] Using the record for E17D , report its protein stability index.
[A] 1.91

[Q] Using the record for E19R , report its protein stability index.
[A] 3.07

[Q] Using the record for T2K , report its protein stability index.
[A] 1.72

[Q] Using the record for K22S , report its protein stability index.
[A] 2.12

[Q] Using the record for G13I , report its protein stability index.
[A] 1.14

[Q] Using the record for D23Q , report its protein stability index.
[A] 1.95

[Q] Using the record for S9E , report its protein stability index.
[A] 2.2

[Q] Using the record for D23Y , report its protein stability index.
[A] 2.52

[Q] Using the record for F1G , report its protein stability index.
[A] 3.15

[Q] Using the record for G13V , report its protein stability index.
[A] 1.81

[Q] Using the record for I7L , report its protein stability index.
[A] 1.18

[Q] Using the record for Q3D , report its protein stability index.
[A] 1.83

[Q] Using the record for E17S , report its protein stability index.
[A] 2.15

[Q] Using the record for M20H , report its protein stability index.
[A] 2.65

[Q] Using the record for S21K , report its protein stability index.
[A] 1.82

[Q] Using the record for T12L , report its protein stability index.
[A] 1.64

[Q] Using the record for C15K , report its protein stability index.
[A] 2.53

[Q] Using the record for D23K , report its protein stability index.
[A] 1.84

[Q] Using the record for I7A , report its protein stability index.
[A] 2.25

[Q] Using the record for M20G , report its protein stability index.
[A] 3.21

[Q] Using the record for E17R , report its protein stability index.
[A] 5.49

[Q] Using the record for G13K , report its protein stability index.
[A] 1.91

[Q] Using the record for I7C , report its protein stability index.
[A] 1.89

[Q] Using the record for A24I , report its protein stability index.
[A] 1.89

[Q] Using the record for R10P , report its protein stability index.
[A] 2.49

[Q] Using the record for D23S , report its protein stability index.
[A] 2.67

[Q] Using the record for R10E , report its protein stability index.
[A] 3.91

[Q] Using the record for S21I , report its protein stability index.
[A] 1.07

[Q] Using the record for L16K , report its protein stability index.
[A] 2.27

[Q] Using the record for M20R , report its protein stability index.
[A] 2.73

[Q] Using the record for T2D , report its protein stability index.
[A] 2.97

The origin of these recorded values is the supplement of paper PMC10567573.
